- SYSTEM_NAME: T1, SYNJ2BP, P57105
- T1 sequence (P57105 8-110, limits assumed, looked up): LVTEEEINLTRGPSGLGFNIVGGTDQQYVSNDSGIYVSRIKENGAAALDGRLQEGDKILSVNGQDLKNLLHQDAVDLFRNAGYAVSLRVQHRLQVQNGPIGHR
- ASSAY_PROTOCOL: holdup assay
- Parameters: key: below the threshold = too weak to quantify, mostly under pKd 3.1 to 4
- MEASUREMENT_CONDITIONS: plain residues with an end cap or a label only (N-terminal biotin on a linker: ado-ado)
Collected pKd values appear next to each entry.
ASSAY_ENDPOINT: pKd

1) HLSTRQGTCV [ATRNL1, Q5VV63]
5.37
2) LPPPESESKV [KCNJ9, Q92806]
4.02
3) KEKASTETEC [TRPM1, Q7Z4N2]
3.83
4) PLPPEEESWV [GAS2L2, Q8NHY3]
4.98
5) FHSIKQSTAV [CRHR1, P34998]
5.21
6) YAEKRMLTEV [KCNA6, P17658]
4.05
7) NISARRFTLC [FAM167B, Q9BTA0]
3.75
8) RDYTQSSSSL [GRM5, P41594]
3.82
9) PEKVSNTTVV [IGSF5, Q9NSI5]
3.51
10) GVHSNDHSVV [LPAR1, Q92633]
3.7
11) THREVKFTSL [CD46, P15529]
4.59
12) EAVTVESTSL [SLC22A11, Q9NSA0]
4.15
13) KLQNPNQSVV [TYRP1, P17643]
3.91
14) ATKDKKITTV [EXOC4, Q96A65]
4.14
